System: E. coli Ec50 efflux pump KO
Assay: microbe, parasite or virus in culture
Assay type: cell-based
Details: Escherichia coli, read-out: MIC Ec50 efflux pump KO
Provide the recorded MIC for the entries that follow.

*Q* Consider the molecule "COCC[C@H]1OC(=O)[C@H](COC)[C@H]2C=C[C@H]3[C@H]4O[C@]2(/C(C)=C/[C@H]1C)[C@@H]3[C@H](O)[C@@H](COC)[C@H]4OC(=O)c1ccc[nH]1" and give its recorded MIC.
*A* > 64 µg/mL

*Q* Look up MIC of "COC[C@@H]1[C@@H](O)[C@@H]2[C@H]3C=C[C@@H]4[C@@H](COC)C(=O)O[C@H]([C@H](O)COC)[C@H](C)/C=C(\C)[C@@]24O[C@H]3[C@@H]1OC(=O)c1cc[nH]n1" and report it.
*A* > 64 µg/mL

*Q* Specify MIC for "COC[C@@H]1[C@@H](O)[C@@H]2[C@H]3C=C[C@@H]4[C@@H](COC)C(=O)O[C@H]([C@H](O)COC)[C@H](C)/C=C(\C)[C@@]24O[C@H]3[C@@H]1OC(=O)c1cc(Br)c(Br)[nH]1" and stop.
*A* > 64 µg/mL

*Q* Check the records and state MIC for "COC[C@@H](O)[C@H]1OC(=O)[C@H](COC)[C@H]2C=C[C@H]3[C@H]4O[C@]2(/C(C)=C/[C@H]1C)[C@@H]3[C@H](O)[C@@H](C)[C@H]4OC(=O)c1ccoc1"
*A* > 64 µg/mL

*Q* State its MIC for this molecule: "COC[C@@H]1[C@@H](O)[C@@H]2[C@H]3C=C[C@@H]4[C@@H](COC)C(=O)O[C@H]([C@H](O)COC)[C@H](C)/C=C(\C)[C@@]24O[C@H]3[C@@H]1OC(=O)c1cocn1"
*A* > 64 µg/mL

*Q* Tell me MIC reported for "COC[C@@H]1[C@@H](O)[C@@H]2[C@H]3C=C[C@@H]4[C@@H](COC)C(=O)O[C@H]([C@H](O)COC)[C@H](C)/C=C(\C)[C@@]24O[C@H]3[C@@H]1OC(=O)c1ccsc1"
*A* > 64 µg/mL

*Q* Retrieve MIC measured for "COC[C@@H]1[C@@H](O)[C@@H]2[C@H]3C=C[C@@H]4[C@@H](COC)C(=O)O[C@H]([C@H](O)COC)[C@H](C)/C=C(\C)[C@@]24O[C@H]3[C@@H]1OC(=O)c1cc(Br)c(Br)o1" and print it.
*A* > 64 µg/mL

*Q* Report measured MIC; entry is COC[C@H]1[C@@H](O)[C@@H]2O[C@@]34/C(C)=C/[C@@H](C)[C@@H]([C@H](O)COC)OC(=O)[C@H](COC)[C@H]3CC[C@@H]2[C@H]4[C@@H]1O [Compound 15, 4,5-Dihydro-branimycin]
*A* > 64 µg/mL

*Q* Give the measured MIC for "COC[C@@H]1[C@@H](O)[C@@H]2[C@H]3C=C[C@@H]4[C@@H](COC)C(=O)O[C@H]([C@H](O)COC)[C@H](C)/C=C(\C)[C@@]24O[C@H]3[C@@H]1OC(=O)c1ccoc1C"
*A* > 64 µg/mL
